test.system: TBK1 (Homo sapiens (Human), UniProt Q9UHD2)
Sequence (Q9UHD2 whole entry): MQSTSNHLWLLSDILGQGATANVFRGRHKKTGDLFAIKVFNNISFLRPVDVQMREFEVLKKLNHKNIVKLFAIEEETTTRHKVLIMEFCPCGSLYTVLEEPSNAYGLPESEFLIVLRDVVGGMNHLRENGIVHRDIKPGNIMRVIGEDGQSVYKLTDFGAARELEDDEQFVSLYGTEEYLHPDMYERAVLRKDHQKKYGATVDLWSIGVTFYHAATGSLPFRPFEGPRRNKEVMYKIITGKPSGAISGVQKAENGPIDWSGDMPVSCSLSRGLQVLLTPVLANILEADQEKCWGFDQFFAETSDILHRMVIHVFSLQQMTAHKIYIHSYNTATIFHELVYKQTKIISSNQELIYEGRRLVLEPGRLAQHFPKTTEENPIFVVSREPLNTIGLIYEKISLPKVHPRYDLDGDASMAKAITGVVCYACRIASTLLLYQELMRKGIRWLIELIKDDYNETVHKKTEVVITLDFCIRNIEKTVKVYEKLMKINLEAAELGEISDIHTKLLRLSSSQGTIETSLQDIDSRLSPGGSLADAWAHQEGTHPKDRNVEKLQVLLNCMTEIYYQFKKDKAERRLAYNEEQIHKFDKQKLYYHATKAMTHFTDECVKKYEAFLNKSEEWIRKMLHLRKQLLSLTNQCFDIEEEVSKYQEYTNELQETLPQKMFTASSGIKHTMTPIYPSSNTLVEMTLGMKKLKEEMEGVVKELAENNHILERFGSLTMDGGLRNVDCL
protocol.description: TBK1 low ATP kinase assay (in vitro assay 1)
Type: biochemical
test.conditions: in vitro assay 1, read-out: TBK1 low ATP kinase assay IC50
measurement.kind: log10(IC50) (log10 of the value in nM)
Transform log10 | Measure IC50 | Unit nM

Noted for `O=C(CC(F)(F)F)N1CCN(Cc2ccnc(Nc3nc4ccc(-c5cc(C6CCOCC6)ncn5)cc4[nH]3)c2)CC1` : its log10(IC50) reads 1.62

Noted for CC(c1ccnc(Nc2nc3ccc(-c4cnn(CC5CC5(F)F)c4)cc3[nH]2)c1)N1CCN(C(=O)C2CC2)CC1 (single isomer, unassigned) [Example 55.03.02] : its log10(IC50) reads -0.18

Noted for `CC(C)(C)OC(=O)N1CCN(Cc2ccnc(Nc3nc4ccc(-c5ccnc(C(F)F)c5)cc4[nH]3)c2)CC1` : its log10(IC50) reads 1.74

Noted for CC(c1ccnc(Nc2nc3ccc(-c4cc(Cl)ncn4)cc3[nH]2)c1)N1CCN(C(=O)OC(C)(C)C)CC1 (single isomer, unassigned) : its log10(IC50) reads 0.76

Noted for CC(c1ccnc(Nc2nc3ccc(-c4cnn(CC(F)F)c4)cc3[nH]2)c1)N1CCN(C(=O)CC(F)(F)F)CC1 (single isomer, unassigned) : its log10(IC50) reads 0.36

Noted for `O=C(C1CC1)N1CCN(Cc2ccnc(Nc3nc4ccc(-c5cnn(CC6CCC6)c5)cc4[nH]3)c2)CC1` : its log10(IC50) reads 0.83

Recorded values, source patent US10894784B2.
